Measured values drawn from ChEMBL document CHEMBL4004859 for this set.

# Lookup of reported pIC50 keyed by entry
test system: Plasmodium falciparum; experiment: Antimalarial activity against chloroquine-resistant Plasmodium falciparum W2 infected in red blood cells after 72 hrs by Malstat reagent based LDH assay; assay type: functional, cell-based; conditions: W2, 72 h
pIC50: −log10 of the molar value.
property: pIC50

querysmiles=Cc1cc(N2CCOCC2)nc(N(CCNc2ccnc3cc(Cl)ccc23)Cc2ccco2)n1 property=pIC50 endpointresult=7.20
querysmiles=Cc1cc(N(CCNc2ccnc3cc(Cl)ccc23)Cc2ccco2)nc(N2CCCC2)n1 property=pIC50 endpointresult=6.79
querysmiles=Cc1cc(N2CCOCC2)nc(N(CCCNc2ccnc3cc(Cl)ccc23)Cc2ccco2)n1 property=pIC50 endpointresult=6.78
querysmiles=CCN1CCN(c2nc(C)cc(N(CCNc3ccnc4cc(Cl)ccc34)Cc3ccco3)n2)CC1 property=pIC50 endpointresult=7.40
querysmiles=Cc1cc(N(CCCNc2ccnc3cc(Cl)ccc23)Cc2ccco2)nc(N2CCN(C)CC2)n1 property=pIC50 endpointresult=7.33
querysmiles=Cc1cc(N2CCCC2)nc(N(CCNc2ccnc3cc(Cl)ccc23)Cc2ccco2)n1 property=pIC50 endpointresult=6.71
querysmiles=Cc1cc(N(CCCNc2ccnc3cc(Cl)ccc23)Cc2ccco2)nc(N2CCCC2)n1 property=pIC50 endpointresult=7.12
